- Test system: Mycobacterium tuberculosis variant bovis
- test-name: Antimycobacterial activity against Mycobacterium bovis BCG ATCC 35734 after 5 days by broth dilution method
- Format: functional
- recorded-conditions: ATCC 35734, 120 h
Collected MIC90 values appear next to each entry.
Give the value in µM but do not write µM after it.

I'd like to know its MIC90. The molecule in question is CCCCCCCCn1cc(CNC23CC4CC(CC(C4)C2)C3)c2cc(OC)ccc21
5

Others:
So what does the record say about MIC90 for CCN1CCN(Cc2cn(C/C=C(\C)CCC=C(C)C)c3ccc(F)cc23)CC1 ?
25

Now try CC(C)=CCC/C(C)=C/Cn1cc(CN(C)C)c2cc(F)ccc21 .
25

Again, but for CCCCn1cc(CN2CCCCCC2)c2c(F)cccc21
23

----------
- System: Mycobacterium tuberculosis variant bovis
- test-name: Antimycobacterial activity against Mycobacterium bovis BCG ATCC 35734 after 5 days by broth dilution method
- Assay type: functional
- recorded-conditions: ATCC 35734, 120 h
parameter: MIC90 (µM)
Field: numeric (µM). Do not append units.

These recorded examples may help you get a feel for the data.
Param item = CC(C)=CCC/C(C)=C/Cn1cc(CN2CCCCC2)c2cc(Br)ccc21 ; retrieve measured MIC90.
10

What about this compound? CCCCCCCCn1cc(CN2CCCCCC2)c2c(OC)cccc21
11

# repeat for CCCN(CC)Cc1cn(C/C=C(\C)CCC=C(C)C)c2ccc(F)cc12
25

Same question for CCCCCCCCn1cc(CN2CCC3(CC2)OCCO3)c2cc(OC)ccc21 please.
9

What do we get for CCCCCCCCn1cc(CNC23CC4CC(CC(C4)C2)C3)c2ccc(F)cc21 ?
5

***
What measured MIC90 goes with CCCCCCCCn1cc(CN2CCCCCC2)c2ccc(F)cc21 ?
6

Follow-up item: CCCCCCn1cc(CN2CCCCCC2)c2c(F)cccc21
13

Query CCCN(C)Cc1cn(C/C=C(\C)CCC=C(C)C)c2ccc(F)cc12 next
28.5

And what about the compound CCCCCCCCn1cc(CNC23CC4CC(CC(C4)C2)C3)c2ccc(OC)cc21 ?
6

Now the compound CCCCN(CCCC)Cc1cn(C/C=C(\C)CCC=C(C)C)c2ccc(F)cc12
25.5

Now the compound CCCCCCCCn1cc(CN2CCCCCC2)c2cc(F)ccc21
6

Then CCCCCCCCn1cc(CN2CCCCC2)c2cccc(OC)c21 ?
11

Another compound: CCCCCCCCn1cc(CNCCC)c2cc(F)ccc21
20

----------
- System: Mycobacterium tuberculosis variant bovis
- test-name: Antimycobacterial activity against Mycobacterium bovis BCG ATCC 35734 after 5 days by broth dilution method
- Format: functional
- recorded-conditions: ATCC 35734, 120 h
Measured MIC90 accompanies every entry in the list below.
Unit µM implied. Number only.

Recorded MIC90 of CCCCCCCCn1cc(CNC2CCCCCC2)c2cc(F)ccc21 , please.
16

Now consider CCCCCCCCn1cc(CN2CCC3(CC2)OCCO3)c2cccc(F)c21 and answer again.
7

How about CCCCCCCCn1cc(CN2CCCCCC2)c2cccc(OC)c21 ?
10

Cool, now CCCN(CCC)Cc1cn(C/C=C(\C)CCC=C(C)C)c2ccc(F)cc12
39

Entry CCCCCCCCn1cc(CNC23CC4CC(CC(C4)C2)C3)c2c(F)cccc21 please
3

Thanks! And CCCCCCCCn1cc(CN2CCC3(CC2)OCCO3)c2ccc(OC)cc21 ?
4

Try this molecule too: CC(C)=CCC/C(C)=C/Cn1cc(CN2CCC3(CC2)OCCO3)c2cc(F)ccc21
9

CCCCCCCCn1cc(CN2CCCCC2)c2ccccc21 , same question.
31

# context switch: different molecule, same MIC90
Fill in the blank: the reported MIC90 of CCCCn1cc(CN2CCCCC2)c2cc(F)ccc21 is ____.
100
